- Test System: Apoptosis regulator Bcl-2 (Homo sapiens)
- Sequence (P10415 whole entry): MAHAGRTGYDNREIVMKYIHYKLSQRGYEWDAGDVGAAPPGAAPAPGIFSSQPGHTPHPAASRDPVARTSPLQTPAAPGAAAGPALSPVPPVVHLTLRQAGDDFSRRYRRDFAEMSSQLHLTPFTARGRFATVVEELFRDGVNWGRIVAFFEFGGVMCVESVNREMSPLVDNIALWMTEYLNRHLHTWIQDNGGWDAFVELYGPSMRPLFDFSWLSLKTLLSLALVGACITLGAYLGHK
- Procedure Summary: Binding affinity to full length human Bcl-2 expressed in Escherichia coli BL21 (DE3) at up to 100 uM preincubated for 30 mins followed by 5-FAM-QEDIIIINIARHLAQVGDSMD-RSIPPG tracer addition and measured after 20 mins by fluorescence polarization assay
- Experimental Parameters: dose microM <=100, time 50.0 min
Calls of active or inactive are those of the source. How the calls were made is not given here.
Property Label: Activity

Reference set (8 entries):
[
  {
    "Record Smiles": "O=S(=O)(NCCNC(=S)Nc1cc(C(F)(F)F)cc(C(F)(F)F)c1)c1ccc(-c2ccccc2OCc2cccc(O)c2)s1",
    "Activity": "inactive"
  },
  {
    "Record Smiles": "Cc1cc(C)cc(NC(=O)NCCNS(=O)(=O)c2ccc(-c3ccccc3Oc3ccc([N+](=O)[O-])c([N+](=O)[O-])c3)s2)c1",
    "Activity": "inactive"
  },
  {
    "Record Smiles": "Cc1ccc(-c2ccsc2S(=O)(=O)NCCNC(=O)Nc2cccc([N+](=O)[O-])c2)c(Oc2ccc(O)c(O)c2)c1",
    "Activity": "inactive"
  },
  {
    "Record Smiles": "O=C(NCCNS(=O)(=O)c1ccc(-c2ccccc2OCc2ccccc2)s1)Nc1cc(C(F)(F)F)cc(C(F)(F)F)c1",
    "Activity": "inactive"
  },
  {
    "Record Smiles": "COc1ccc(NC(=S)NCCNS(=O)(=O)c2sccc2-c2ccc(C)cc2Oc2ccc(O)c(O)c2)cc1",
    "Activity": "inactive"
  },
  {
    "Record Smiles": "Cc1cc(C)cc(NC(=O)NCCNS(=O)(=O)c2ccc(-c3ccccc3Oc3ccc(N)cc3)s2)c1",
    "Activity": "inactive"
  },
  {
    "Record Smiles": "O=[N+]([O-])c1ccc(NC(=S)NCCNS(=O)(=O)c2ccc(-c3ccccc3OCc3cccc(O)c3)s2)cc1",
    "Activity": "inactive"
  },
  {
    "Record Smiles": "O=C(NCCNS(=O)(=O)c1ccc(-c2ccccc2O[C@H]2CC[C@@H](O)CC2)s1)Nc1cc(C(F)(F)F)cc(C(F)(F)F)c1",
    "Activity": "inactive"
  }
]

API: the following record is the query input.
What the record says about `COc1cccc(NC(=S)NCCNS(=O)(=O)c2sccc2-c2ccc(C)cc2Oc2ccc(O)c(O)c2)c1` : Activity is inactive
